- Measurement Description: Microsome stability studies
- Format: in vitro ADME
- Condition: female, CD-1, mouse, mouse microsomes, pH 7.4
Observed Property: half-life at 1 μg/mL (min)
Give just the number in min; leave the unit off.

Exercise: Give a short answer stating reported half-life at 1 μg/mL for O=C(CCN1CCOCC1)Nc1ccc2c(-c3cc4ccccc4o3)ccnc2c1O [Compound 61] .
Solution: 15

* * *

- Measurement Description: In vivo PK studies
- Condition: female CD-1 mice, single IP 50 mg/kg, plasma
Observed Property: CL (mL/min/kg)
// return numeric value only (unit: mL/min/kg, not printed)

| Compound | Unit String | Quantitative Result |
| --- | --- | --- |
| CC(=O)Nc1ccc2c(-c3cc(F)ccc3O)ccnc2c1O [Compound 7] | mL/min/kg | 64.5 |
| CC(=O)Nc1ccc2c(-c3cc4ccccc4o3)ccnc2c1O [Compound 53] | mL/min/kg | 283.2 |
| O=C(CCN1CCOCC1)Nc1ccc2c(-c3cc4ccccc4o3)ccnc2c1O [Compound 61] | mL/min/kg | 61.8 |

Exercise: Input O=C(CCN1CCOCC1)Nc1ccc2c(-c3cc(F)ccc3O)ccnc2c1O [Compound 42] , output reported CL.
Solution: 62.2

Exercise: Using the record for O=C(CN1CCOCC1)Nc1ccc2c(-c3cc4ccccc4o3)ccnc2c1O [Compound 60] , state its measured CL.
Solution: 137
